Measured values drawn from patent US20240317736A1 for this set.

- test-protocol: Dynamic solubility test in water and biological vehicles
- Assay type: physicochemical
- experimental-conditions: simulated gastric fluid (SGF), pH 1.8, simulated gastric fluid, thermodynamic from solid; vehicle SGF, 2 h, 37° C.; read-out: S: Solubility
assay-endpoint: solubility at 2 h

IN: Would you mind telling me what solubility at 2 h value was observed for [2H]C([2H])([2H])N(c1nc(-c2ccc(F)cc2)c(C#N)s1)c1c(CC)nn2cc(F)c(N3CCN(CC(=O)N4CC(O)C4)CC3)cc12 [Compound A Crystal form I] ?
OUT: 15 µg/mL

---

- test-protocol: Dynamic solubility test in water and biological vehicles
- Type: physicochemical
- experimental-conditions: simulated gastric fluid (SGF), pH 1.8, simulated gastric fluid, thermodynamic from solid; vehicle SGF, 1 h, 37° C.; read-out: S: Solubility
assay-endpoint: solubility at 1 h (µg/mL)
Give your result in µg/mL as a bare value.

IN: Would you mind telling me what solubility at 1 h value was observed for [2H]C([2H])([2H])N(c1nc(-c2ccc(F)cc2)c(C#N)s1)c1c(CC)nn2cc(F)c(N3CCN(CC(=O)N4CC(O)C4)CC3)cc12 [Compound A Crystal form I] ?
OUT: 15

---

Assign IC50 to each entry below.
- system-name: autocrine motility factor (Homo sapiens)
- Construct: Whole blood was anticoagulated with heparin and centrifuged, and then plasma was collected; from tissue; host or cells: pooled human plasma (heparin-anticoagulated whole blood)
- test-protocol: Inhibition of LPA formation in mixed ex vivo human plasma
- Format: biochemical
- experimental-conditions: 37° C., 2 h, LPA 20:4 by LC-MS/MS, read-out: IC50 for inhibiting LPA formation (20:4)
Give your result in nM as a bare value.

IN: Would you mind telling me what IC50 value was observed for [2H]C([2H])([2H])N(c1nc(-c2ccc(F)cc2)c(C#N)s1)c1c(C([2H])([2H])C([2H])([2H])[2H])nn2cc(F)c(N3CCN(CC(=O)N4CC(O)C4)CC3)cc12 [Compound 2] ?
OUT: 55.3

IN: Now the same for [2H]C1([2H])N(CC(=O)N2CC(O)C2)C([2H])([2H])C([2H])([2H])N(c2cc3c(N(C)c4nc(-c5ccc(F)cc5)c(C#N)s4)c(CC)nn3cc2F)C1([2H])[2H] [Compound 4]
OUT: 54.8

IN: Now the same for [2H]C([2H])([2H])C([2H])([2H])c1nn2cc(F)c(N3CCN(CC(=O)N4CC(O)C4)CC3)cc2c1N(C)c1nc(-c2ccc(F)cc2)c(C#N)s1 [Compound 1]
OUT: 48.5

IN: Now the same for [2H]C([2H])([2H])N(c1nc(-c2ccc(F)cc2)c(C#N)s1)c1c(CC)nn2cc(F)c(N3CCN(CC(=O)N4CC(O)C4)CC3)cc12 [Compound 3]
OUT: 44.5

---

- test-protocol: Pharmacokinetic test in dogs
- Format: in vivo, male beagles
- experimental-conditions: male, beagle, dog, plasma, PO 2 mg/kg
assay-endpoint: Tmax (h)
Give your result in h as a bare value.

IN: Would you mind telling me what Tmax value was observed for [2H]C([2H])([2H])N(c1nc(-c2ccc(F)cc2)c(C#N)s1)c1c(CC)nn2cc(F)c(N3CCN(CC(=O)N4CC(O)C4)CC3)cc12 ?
OUT: 1.67

---

- test-protocol: Pharmacokinetic test in rats
- Format: in vivo
- experimental-conditions: male, SD, rat, plasma, PO 5 mg/kg vs IV 1 mg/kg
Assign bioavailability to each entry below.
Give your result in % as a bare value.

IN: Would you mind telling me what bioavailability value was observed for [2H]c1c([2H])c(-c2nc(N(C)c3c(CC)nn4cc(F)c(N5CCN(CC(=O)N6CC(O)C6)CC5)cc34)sc2C#N)c([2H])c([2H])c1F ?
OUT: 51.3

IN: Now the same for [2H]c1c([2H])c(-c2nc(N(c3c(CC)nn4cc(F)c(N5CCN(CC(=O)N6CC(O)C6)CC5)cc34)C([2H])([2H])[2H])sc2C#N)c([2H])c([2H])c1F
OUT: 37.3

IN: Now the same for [2H]C([2H])([2H])N(c1nc(-c2ccc(F)cc2)c(C#N)s1)c1c(C([2H])([2H])C([2H])([2H])[2H])nn2cc(F)c(N3CCN(CC(=O)N4CC(O)C4)CC3)cc12
OUT: 38.6

IN: Now the same for [2H]C([2H])([2H])C([2H])([2H])c1nn2cc(F)c(N3CCN(CC(=O)N4CC(O)C4)CC3)cc2c1N(C)c1nc(-c2ccc(F)cc2)c(C#N)s1
OUT: 22.1
